- System: Alopecurus myosuroides (ALOMY)
- assay_explanation: Glasshouse assay for herbicidal activity (pre- and post-emergence), percentage phytotoxicity
- Assay type: in vivo
- cond: Alopecurus myosuroides, pre-emergence, 480 h, Rate 250 g/ha; pre-emergence; assessed visually 20 DAA; 100%=total damage, 0%=no damage; read-out: Pre-emergence herbicidal activity (percentage phytotoxicity) ALOMY PRE
endpoint: pest or weed control at 250 g/ha (%)
A number alone suffices; assume %.

// below: answered compounds
>>> reading("Cc1cc(C)c(C2C(=O)CC(CC(=O)NCC(C)C)C2=O)c(C)c1 (stereo not shown) [Compound A5]")
100
>>> reading("Cc1cnc(CNC(=O)CC2CC(=O)C(c3c(C)cc(-c4ncc(Cl)cc4F)cc3C)C2=O)s1 (stereo not shown) [Compound A123]")
60
>>> reading("Cc1cc(C)c(C2C(=O)CC(C(C)C(=O)NCc3cccs3)C2=O)c(C)c1 (stereo not shown) [Compound A165]")
60
>>> reading("Cc1cc(-n2cc(Cl)cn2)cc(C)c1C1C(=O)CC(CC(=O)NCC(=O)c2ccccc2)C1=O (stereo not shown) [Compound A137]")
60
>>> reading("CC#Cc1cc(C)c(C2C(=O)CC(CC(=O)NCC#N)C2=O)c(C)c1 (stereo not shown) [Compound A78]")
10
>>> reading("Cc1cc(-n2cc(Cl)cn2)cc(C)c1C1C(=O)CC(CC(=O)NCc2ccccn2)C1=O (stereo not shown) [Compound A71]")
80
>>> reading("Cc1cc(-c2ncc(Cl)cc2F)cc(C)c1C1C(=O)CC(CC(=O)NCc2cccc(Cl)c2)C1=O (stereo not shown) [Compound A117]")
70
>>> reading("C=CCCNC(=O)CC1CC(=O)C(c2c(C)cc(C)cc2C)C1=O (stereo not shown) [Compound A94]")
90

Please provide the recorded pest or weed control at 250 g/ha for C#Cc1cc(C)c(C2C(=O)CC(CC(=O)NC(C)(C)C)C2=O)c(C)c1 (stereo not shown) [Compound A43] , tested on Alopecurus myosuroides (ALOMY).
100

And for Cc1cc(C)c(C2C(=O)CC(CC(=O)NC3CCCC3)C2=O)c(C)c1 (stereo not shown) [Compound A21] ?
70

Similarly, CCCCNC(=O)CC1CC(=O)C(c2c(C)cc(C)cc2C)C1=O (stereo not shown) [Compound A12] ?
90

Do the same for Cc1cc(-c2ncc(Cl)cc2F)cc(C)c1C1C(=O)CC(CC(=O)NCc2ccc(Cl)nc2)C1=O (stereo not shown) [Compound A116] please
80
